The values you see were collected from BigSolDB 2.1.

conditions: in DMF, 323.15 K

| SMILES STR | solubility (mole fraction) |
| --- | --- |
| COc1cc(CC#N)cc(OC)c1OC | 0.497 |

* * *

conditions: in cyclohexane, 293.15 K

| SMILES STR | solubility (mole fraction) |
| --- | --- |
| COc1cc(CC#N)cc(OC)c1OC | 0.000452 |

* * *

conditions: in n-propanol, 288.15 K

| SMILES STR | solubility (mole fraction) |
| --- | --- |
| COc1cc(CC#N)cc(OC)c1OC | 0.00951 |

* * *

details: in ethanol, 313.15 K
EXPERIMENTAL READOUT: solubility (mole fraction)

| SMILES STR | EXPERIMENTAL READOUT | RESULT |
| --- | --- | --- |
| COc1cc(CC#N)cc(OC)c1OC | solubility (mole fraction) | 0.0927 |

* * *

conditions: in methanol, 293.15 K

| SMILES STR | solubility (mole fraction) |
| --- | --- |
| COc1cc(CC#N)cc(OC)c1OC | 0.0179 |

* * *

details: in sec-butanol, 313.15 K

| SMILES STR | solubility (mole fraction) |
| --- | --- |
| COc1cc(CC#N)cc(OC)c1OC | 0.118 |

* * *

details: in ethyl acetate, 323.15 K

| SMILES STR | solubility (mole fraction) |
| --- | --- |
| COc1cc(CC#N)cc(OC)c1OC | 0.461 |

* * *

settings: in n-heptane, 318.15 K
EXPERIMENTAL READOUT: solubility (mole fraction)

| SMILES STR | EXPERIMENTAL READOUT | RESULT |
| --- | --- | --- |
| COc1cc(CC#N)cc(OC)c1OC | solubility (mole fraction) | 0.00573 |

* * *

conditions: in n-hexane, 323.15 K

| SMILES STR | solubility (mole fraction) |
| --- | --- |
| COc1cc(CC#N)cc(OC)c1OC | 0.0121 |

* * *

conditions: in isopropanol, 303.15 K

| SMILES STR | solubility (mole fraction) |
| --- | --- |
| COc1cc(CC#N)cc(OC)c1OC | 0.0199 |

* * *

conditions: in isopropyl acetate, 313.15 K

| SMILES STR | solubility (mole fraction) |
| --- | --- |
| COc1cc(CC#N)cc(OC)c1OC | 0.243 |

* * *

conditions: in sec-butanol, 298.15 K

| SMILES STR | solubility (mole fraction) |
| --- | --- |
| COc1cc(CC#N)cc(OC)c1OC | 0.0314 |

* * *

details: in methanol, 288.15 K
EXPERIMENTAL READOUT: solubility (mole fraction)

| SMILES STR | RESULT |
| --- | --- |
| COc1cc(CC#N)cc(OC)c1OC | 0.0128 |

* * *

conditions: in n-propanol, 303.15 K

| SMILES STR | solubility (mole fraction) |
| --- | --- |
| COc1cc(CC#N)cc(OC)c1OC | 0.0264 |

* * *

conditions: in isopropanol, 313.15 K

| SMILES STR | solubility (mole fraction) |
| --- | --- |
| COc1cc(CC#N)cc(OC)c1OC | 0.0497 |

* * *

details: in DMF, 303.15 K
EXPERIMENTAL READOUT: solubility (mole fraction)

| SMILES STR | RESULT |
| --- | --- |
| COc1cc(CC#N)cc(OC)c1OC | 0.239 |

* * *

conditions: in DMF, 298.15 K

| SMILES STR | solubility (mole fraction) |
| --- | --- |
| COc1cc(CC#N)cc(OC)c1OC | 0.195 |

* * *

conditions: in isopropanol, 293.15 K
EXPERIMENTAL READOUT: solubility (mole fraction)

| SMILES STR | EXPERIMENTAL READOUT | RESULT |
| --- | --- | --- |
| COc1cc(CC#N)cc(OC)c1OC | solubility (mole fraction) | 0.00942 |

* * *

details: in DMF, 288.15 K

| SMILES STR | solubility (mole fraction) |
| --- | --- |
| COc1cc(CC#N)cc(OC)c1OC | 0.127 |

* * *

conditions: in cyclohexane, 318.15 K

| SMILES STR | solubility (mole fraction) |
| --- | --- |
| COc1cc(CC#N)cc(OC)c1OC | 0.00671 |

* * *

conditions: in DMF, 293.15 K

| SMILES STR | solubility (mole fraction) |
| --- | --- |
| COc1cc(CC#N)cc(OC)c1OC | 0.158 |

* * *

conditions: in n-heptane, 298.15 K
EXPERIMENTAL READOUT: solubility (mole fraction)

| SMILES STR | EXPERIMENTAL READOUT | RESULT |
| --- | --- | --- |
| COc1cc(CC#N)cc(OC)c1OC | solubility (mole fraction) | 0.000693 |

* * *

details: in n-propanol, 298.15 K

| SMILES STR | solubility (mole fraction) |
| --- | --- |
| COc1cc(CC#N)cc(OC)c1OC | 0.0179 |

* * *

conditions: in ethanol, 318.15 K
EXPERIMENTAL READOUT: solubility (mole fraction)

| SMILES STR | RESULT |
| --- | --- |
| COc1cc(CC#N)cc(OC)c1OC | 0.167 |

* * *

conditions: in isopropyl acetate, 298.15 K

| SMILES STR | solubility (mole fraction) |
| --- | --- |
| COc1cc(CC#N)cc(OC)c1OC | 0.101 |

* * *

details: in isopropanol, 288.15 K

| SMILES STR | solubility (mole fraction) |
| --- | --- |
| COc1cc(CC#N)cc(OC)c1OC | 0.00703 |

* * *

conditions: in isopropyl acetate, 318.15 K
EXPERIMENTAL READOUT: solubility (mole fraction)

| SMILES STR | EXPERIMENTAL READOUT | RESULT |
| --- | --- | --- |
| COc1cc(CC#N)cc(OC)c1OC | solubility (mole fraction) | 0.321 |

* * *

conditions: in n-propanol, 283.15 K
EXPERIMENTAL READOUT: solubility (mole fraction)

| SMILES STR | RESULT |
| --- | --- |
| COc1cc(CC#N)cc(OC)c1OC | 0.00747 |

* * *

details: in isopropyl acetate, 323.15 K
EXPERIMENTAL READOUT: solubility (mole fraction)

| SMILES STR | RESULT |
| --- | --- |
| COc1cc(CC#N)cc(OC)c1OC | 0.423 |

* * *

conditions: in isopropanol, 308.15 K

| SMILES STR | solubility (mole fraction) |
| --- | --- |
| COc1cc(CC#N)cc(OC)c1OC | 0.0305 |
